Test system: Staphylococcus epidermidis
Assay: Minimum inhibitory concentration measured against Staphylococcus epidermidis (ATCC 12228)
Type: functional
Assay readout: MIC (µg/mL)

>>> meas_value("NC[C@H]1O[C@H](O[C@H]2[C@H](O)[C@@H](O[C@H]3O[C@H](CO)[C@@H](O)[C@H](N)[C@H]3O)[C@H](N)C[C@@H]2N)[C@H](N)[C@@H](O)[C@@H]1O [BEKANAMYCIN]")
0.25

(A) CCCSCC1OC(OC2C(NC(=O)OC(C)(C)C)CC(NC(=O)OC(C)(C)C)C(OC3OC(CNC(=O)OC(C)(C)C)C(O)C(O)C3NC(=O)OC(C)(C)C)C2O)C(O)C(NC(=O)OC(C)(C)C)C1O (centres undefined)
(B) CC(=O)N(C)CC1OC(OC2C(NC(=O)OC(C)(C)C)CC(NC(=O)OC(C)(C)C)C(OC3OC(CNC(=O)OC(C)(C)C)C(O)C(O)C3NC(=O)OC(C)(C)C)C2O)C(O)C(NC(=O)OC(C)(C)C)C1O (centres undefined)
Look at A and B . Which one has the lower recorded MIC number? Please indicate the selected item by its label. A
(A: 0.25 µg/mL, B: 2 µg/mL)

----------
Tested on: Klebsiella aerogenes
Experiment: Minimum inhibitory concentration measured against Enterobacter aerogenes (ATCC 13048)
Format: functional
Assay readout: MIC (µg/mL)

>>> meas_value("NC[C@H]1O[C@H](O[C@H]2[C@H](O)[C@@H](O[C@H]3O[C@H](CO)[C@@H](O)[C@H](N)[C@H]3O)[C@H](N)C[C@@H]2N)[C@H](N)[C@@H](O)[C@@H]1O")
0.5

(P) CCCSCC1OC(OC2C(NC(=O)OC(C)(C)C)CC(NC(=O)OC(C)(C)C)C(OC3OC(CNC(=O)OC(C)(C)C)C(O)C(O)C3NC(=O)OC(C)(C)C)C2O)C(O)C(NC(=O)OC(C)(C)C)C1O (centres undefined)
(Q) CC(=O)N(C)CC1OC(OC2C(NC(=O)OC(C)(C)C)CC(NC(=O)OC(C)(C)C)C(OC3OC(CNC(=O)OC(C)(C)C)C(O)C(O)C3NC(=O)OC(C)(C)C)C2O)C(O)C(NC(=O)OC(C)(C)C)C1O (centres undefined)
Consider P and Q . Which of these has its MIC at a higher number? Please indicate the selected item by its label. Q
(Q: 32 µg/mL, P: 4 µg/mL)

----------
Tested on: Enterococcus faecalis
Assay: Minimum inhibitory concentration measured against […] faecalis (ATCC 19431)
Type: functional
Assay readout: MIC (µg/mL)
Use µg/mL as the unit, but write only the number.

>>> meas_value("NC[C@H]1O[C@H](O[C@H]2[C@H](O)[C@@H](O[C@H]3O[C@H](CO)[C@@H](O)[C@H](N)[C@H]3O)[C@H](N)C[C@@H]2N)[C@H](N)[C@@H](O)[C@@H]1O")
16

We next turn to a different compound, shown below.
For CCCSCC1OC(OC2C(NC(=O)OC(C)(C)C)CC(NC(=O)OC(C)(C)C)C(OC3OC(CNC(=O)OC(C)(C)C)C(O)C(O)C3NC(=O)OC(C)(C)C)C2O)C(O)C(NC(=O)OC(C)(C)C)C1O (centres undefined) , what is its reported MIC? 8

----------
System: Citrobacter freundii
Test: Minimum inhibitory concentration measured against Citrobacter freundii (ATCC 8090)
Type: functional
Assay readout: MIC (mg/L)

>>> meas_value("NC[C@H]1O[C@H](O[C@H]2[C@H](O)[C@@H](O[C@H]3O[C@H](CO)[C@@H](O)[C@H](N)[C@H]3O)[C@H](N)C[C@@H]2N)[C@H](N)[C@@H](O)[C@@H]1O")
0.5

(1) CC(=O)N(C)CC1OC(OC2C(NC(=O)OC(C)(C)C)CC(NC(=O)OC(C)(C)C)C(OC3OC(CNC(=O)OC(C)(C)C)C(O)C(O)C3NC(=O)OC(C)(C)C)C2O)C(O)C(NC(=O)OC(C)(C)C)C1O (centres undefined)
(2) CCCSCC1OC(OC2C(NC(=O)OC(C)(C)C)CC(NC(=O)OC(C)(C)C)C(OC3OC(CNC(=O)OC(C)(C)C)C(O)C(O)C3NC(=O)OC(C)(C)C)C2O)C(O)C(NC(=O)OC(C)(C)C)C1O (centres undefined)
Look at 1 and 2 . Which one has the lower recorded MIC number? Please indicate the selected item by its label. 2
(2: 1 mg/L, 1: 8 mg/L)

----------
System: Escherichia coli
Test: Minimum inhibitory concentration measured against Escherichia coli (ATCC 25922)
Type: functional
Assay readout: MIC (µg/mL)

>>> meas_value("NC[C@H]1O[C@H](O[C@H]2[C@H](O)[C@@H](O[C@H]3O[C@H](CO)[C@@H](O)[C@H](N)[C@H]3O)[C@H](N)C[C@@H]2N)[C@H](N)[C@@H](O)[C@@H]1O [BEKANAMYCIN]")
1

(1) CCCSCC1OC(OC2C(NC(=O)OC(C)(C)C)CC(NC(=O)OC(C)(C)C)C(OC3OC(CNC(=O)OC(C)(C)C)C(O)C(O)C3NC(=O)OC(C)(C)C)C2O)C(O)C(NC(=O)OC(C)(C)C)C1O (centres undefined)
(2) CC(=O)N(C)CC1OC(OC2C(NC(=O)OC(C)(C)C)CC(NC(=O)OC(C)(C)C)C(OC3OC(CNC(=O)OC(C)(C)C)C(O)C(O)C3NC(=O)OC(C)(C)C)C2O)C(O)C(NC(=O)OC(C)(C)C)C1O (centres undefined)
Look at 1 and 2 . Which one has the lower recorded MIC number? Please indicate the selected item by its label. 1
